B1: library; a variant is named by its letters at N, in order (parent)
chain: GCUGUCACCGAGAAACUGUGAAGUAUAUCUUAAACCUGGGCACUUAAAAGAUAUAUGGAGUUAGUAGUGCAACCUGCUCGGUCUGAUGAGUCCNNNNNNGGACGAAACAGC

- Variants of: B1
- ASSAY_PROCEDURE: normalized RNA/DNA level with ligand (relative to sTRSVctl = 100) (log10 (% of sTRSVctl)); HEK293T; ligand: cyclic di-GMP (c-di-GMP-II aptamer); ligand concentration (+) RNA-Seq: 1 mM; higher = less ribozyme self-cleavage, higher mRNA level
- APPLIED_CONDITIONS: reporter: mCherry (pCS4076), ligand present: yes
Recorded normalized RNA/DNA level with ligand (log10) values for a group of variants are listed next.
The answer should be a number; do not append a unit.

See these solved cases before continuing.
>  <MUTATION_NAME>
CUAAAG

>  <EXPERIMENTAL_RESULT>
1.79

$$$$
>  <MUTATION_NAME>
CAGACG

>  <EXPERIMENTAL_RESULT>
1.77

$$$$
>  <MUTATION_NAME>
GGUAAA

>  <EXPERIMENTAL_RESULT>
1.62

$$$$
>  <MUTATION_NAME>
UCUACC

>  <EXPERIMENTAL_RESULT>
1.88

$$$$
>  <MUTATION_NAME>
AAUGGU

>  <EXPERIMENTAL_RESULT>
1.76

$$$$
>  <MUTATION_NAME>
GUCUGC

>  <EXPERIMENTAL_RESULT>
1.87

$$$$

Field normalized RNA/DNA level with ligand (log10) (entry "AGAUCU" ) reads 1.85

Noted for "GGGCCC" : its normalized RNA/DNA level with ligand (log10) reads 1.99

Reported normalized RNA/DNA level with ligand (log10) of "CAACAU" : 1.64

Note to self: normalized RNA/DNA level with ligand (log10) recorded for "UAUCUA" was 1.81

The recorded normalized RNA/DNA level with ligand (log10) for entry "UGUCAA" equals 1.82

So, "GUGCAA" ? Its normalized RNA/DNA level with ligand (log10) was 1.77

// recorded normalized RNA/DNA level with ligand (log10) for "ACGAGG" : 1.69

// normalized RNA/DNA level with ligand (log10) lookup, variant = "AAGUGG" , result: 1.78

Just so you know, measured normalized RNA/DNA level with ligand (log10) for "UAUGCG" came out at 1.86

response.value for "CAAUCC" (field: normalized RNA/DNA level with ligand (log10)) = 1.87

Just so you know, measured normalized RNA/DNA level with ligand (log10) for "AGCCAG" came out at 1.79

The value of normalized RNA/DNA level with ligand (log10) measured for the variant "UAGUCA" turned out to be 1.91

Notebook: "AAAUUU" , normalized RNA/DNA level with ligand (log10) read as 1.82

Value of measured normalized RNA/DNA level with ligand (log10) for the entry "CACGCU" : 1.84
